# TEST PROTOCOL: Phase 2a study: trough and peak plasma drug levels
# Type: in vivo, human (postmenopausal women)
# ASSAY CONTEXT: female, human, plasma; 100 mg daily PO, Day 8, ITT, mean (SD); read-out: Mean Trough Level of Drug
Counter-ions that a name gives are not always drawn.
MEASUREMENT NAME: concentration at 8 day (ng/mL)
Write the answer as a number in ng/mL, unit excluded.

Quote concentration at 8 day reported for CCNCCc1ccc(CN(CC)c2cc(OC)ccc2[C@@H]2CCc3cc(O)ccc3C2)cc1 [drug, dihydrochloride] please.
6.91

====

# TEST PROTOCOL: Phase 2a study: trough and peak plasma drug levels
# Type: in vivo, human (postmenopausal women)
# ASSAY CONTEXT: female, human, plasma; 100 mg daily PO, Day 15, ITT, mean (SD); read-out: Mean Trough Level of Drug
Where a name gives a salt, the structure may show the parent alone.
MEASUREMENT NAME: concentration at 15 day (ng/mL)
Write the answer as a number in ng/mL, unit excluded.

Quote concentration at 15 day reported for CCNCCc1ccc(CN(CC)c2cc(OC)ccc2[C@@H]2CCc3cc(O)ccc3C2)cc1 [drug, dihydrochloride] please.
6.66
